Target Under Test: Aurora2 (Homo sapiens)
Construct: Aurora2: whole recombinant protein comprising an N-terminal histidine tail; His tag (N)
Sequence (O14965 whole entry): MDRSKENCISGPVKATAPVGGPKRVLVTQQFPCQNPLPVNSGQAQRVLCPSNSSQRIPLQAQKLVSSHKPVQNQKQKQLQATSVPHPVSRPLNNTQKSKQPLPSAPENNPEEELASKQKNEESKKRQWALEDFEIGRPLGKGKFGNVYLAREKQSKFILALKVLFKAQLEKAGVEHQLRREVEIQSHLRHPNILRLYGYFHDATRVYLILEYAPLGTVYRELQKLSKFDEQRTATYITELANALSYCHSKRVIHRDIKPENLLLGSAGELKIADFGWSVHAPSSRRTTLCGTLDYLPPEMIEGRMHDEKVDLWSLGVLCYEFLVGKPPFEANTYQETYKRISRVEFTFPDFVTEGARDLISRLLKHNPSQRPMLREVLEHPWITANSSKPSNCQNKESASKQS
Method Notes: Aurora2 enzymatic test, NuMA phosphorylation with [33P]ATP, Flashplate
Condition Parameters: whole recombinant protein, 1 μM ATP
Description: The inhibitory effect of compounds with respect to the kinases Aurora1 and Aurora2 is determined by means of an enzymatic test using radioactivity detection. The kinase activity of Aurora1 and Aurora2 is evaluated via the phosphorylation of the substrate Numa-histidine in the presence of radiolabelled ATP ([^33P]ATP) using 96-well Flashplate plates in which the nickel chelate is bound to the surface of the microplate. […]
For each of the molecules below, state its pIC50.
One number for each entry, as −log10 of the molar value.

Example results:
{"Molecule": "CCc1ccccc1NNC(=O)c1cc2c(NC(=O)c3ccc(OC)cc3)n[nH]c2s1", "pIC50": 7.55}
{"Molecule": "CC1CN(Cc2ccc(C(=O)Nc3n[nH]c4sc(C(=O)NN(C)c5ccccc5)cc34)cc2)CC(C)N1 (stereo not drawn) [Example 11a]", "pIC50": 7.51}
{"Molecule": "COCCN(NC(=O)c1cc2c(NC(=O)c3ccc(N4CCN(C)CC4)cc3)n[nH]c2s1)c1ccc(F)cc1", "pIC50": 8.40}
{"Molecule": "CN(NC(=O)c1cc2c(NC(=O)c3ccc(CN4CCC4)cc3)n[nH]c2s1)c1ccccc1", "pIC50": 7.59}
{"Molecule": "COc1ccc(C(=O)Nc2n[nH]c3sc(C(=O)NN(Cc4ccccc4)c4ccccc4)cc23)cc1", "pIC50": 7.55}
{"Molecule": "CN1CCN(c2ccc(C(=O)Nc3n[nH]c4sc(C(=O)NN(C)c5ccccc5)cc34)cc2)CC1", "pIC50": 8.40}

Need pIC50 for each of these molecules.
1. CN1CCN(c2ccc(C(=O)Nc3n[nH]c4sc(C(=O)NN5CCCCC5)cc34)cc2)CC1
2. CN(NC(=O)c1cc2c(NC(=O)c3ccc(OCCN4CCOCC4)cc3)n[nH]c2s1)c1ccccc1
3. CC1CN(Cc2ccc(C(=O)Nc3n[nH]c4sc(C(=O)NN(C)c5ccc(Cl)cc5)cc34)cc2)CCN1 (stereo not drawn) [Example 14b]
4. CN1CCN(Cc2cccc(C(=O)Nc3n[nH]c4sc(C(=O)NN(C)c5ccccc5)cc34)c2)CC1 [Example 16a]
5. CN1CCCN(c2ccc(C(=O)Nc3n[nH]c4sc(C(=O)NN(C)c5ccccc5)cc34)cn2)CC1

[A]
1: 7.59; 2: 8.22; 3: 7.36; 4: 6.52; 5: 8.22

Need pIC50 for each of these molecules.
1. CN(NC(=O)c1cc2c(NC(=O)c3ccc(CN4CCCCC4)cc3)n[nH]c2s1)c1ccccc1 [Example 17a]
2. COc1ccc(C(=O)Nc2n[nH]c3sc(C(=O)NN(C)c4ccccc4)cc23)cc1
3. CN1CCN(c2ccc(C(=O)Nc3n[nH]c4sc(C(=O)NN(C)c5ccc(Cl)cc5)cc34)cc2)CC1

[A]
[8.15, 8.05, 8.70]

[Q] Quick check: pIC50 of "CN1CCN(c2ccc(C(=O)Nc3n[nH]c4sc(C(=O)NN(CC5CCC5)c5ccc(Cl)cc5)cc34)cc2)CC1" ?
[A] 8.30

---

Target Under Test: Tie2 (Homo sapiens)
Construct: amino acids of the intracellular domain 776-1124; made in house; host or cells: baculovirus expression (pFastBacGT vector)
Sequence (Q02763 776-1124): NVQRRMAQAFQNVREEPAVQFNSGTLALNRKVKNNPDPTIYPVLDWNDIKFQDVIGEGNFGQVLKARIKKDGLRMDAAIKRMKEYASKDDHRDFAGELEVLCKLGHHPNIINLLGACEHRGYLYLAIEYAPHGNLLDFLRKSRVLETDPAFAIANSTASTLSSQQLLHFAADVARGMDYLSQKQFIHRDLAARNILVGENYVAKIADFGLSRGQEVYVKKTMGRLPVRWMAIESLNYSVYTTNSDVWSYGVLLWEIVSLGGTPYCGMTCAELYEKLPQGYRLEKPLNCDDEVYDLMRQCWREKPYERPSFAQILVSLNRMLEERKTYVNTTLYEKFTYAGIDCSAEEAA
Method Notes: Tie2 kinase test, phosphorylation of PLC with GST-Tie2
Type: biochemical
Condition Parameters: GST-Tie2 intracellular domain 776-1124
Sorting guide: entries reporting IC50 beneath 500 nM go in the 1 (yes) pile, the rest go in the 0 (no) pile.

# example entries with known answers
{"Compound": "CCN(NC(=O)c1cc2c(NC(=O)c3ccc(N4CCN(C)CC4)cc3)n[nH]c2s1)c1cccc(C)c1", "Discrete Label": "1 (yes)"}
{"Compound": "CCN(CC)CCNCc1ccc(C(=O)Nc2n[nH]c3sc(C(=O)NN(C)c4ccccc4)cc23)cc1 [Example 23a]", "Discrete Label": "1 (yes)"}
{"Compound": "CN(Cc1ccc(C(=O)Nc2n[nH]c3sc(C(=O)NN(C)c4ccccc4)cc23)cc1)c1ccccc1", "Discrete Label": "0 (no)"}
{"Compound": "CN(NC(=O)c1cc2c(NC(=O)c3ccc(OCCN4CCOCC4)cc3)n[nH]c2s1)c1ccccc1", "Discrete Label": "1 (yes)"}
{"Compound": "CCN(NC(=O)c1cc2c(NC(=O)c3ccc(N4CCN(C)CC4)cc3)n[nH]c2s1)c1ccccc1", "Discrete Label": "1 (yes)"}

[Q] Lab log: compare recorded IC50 with 500 nM; is it strictly lower for "CCN(NC(=O)c1cc2c(NC(=O)c3ccc(N4CCN(C)CC4)cc3)n[nH]c2s1)c1ccccc1C" ?
[A] 1 (yes)

[Q] Lab log: compare recorded IC50 with 500 nM; is it strictly lower for "CN1CCN(c2ccc(C(=O)Nc3n[nH]c4sc(C(=O)NN(C)c5ccc(Cl)cc5)cc34)cc2)CC1" ?
[A] 1 (yes)

[Q] Lab log: compare recorded IC50 with 500 nM; is it strictly lower for "CN1CCN(c2ccc(C(=O)Nc3n[nH]c4sc(C(=O)NN(C)Cc5ccccc5)cc34)cc2)CC1" ?
[A] 1 (yes)

---

Structures can show the parent of a compound that is named as a salt.
Quantity: melting point

Example results:
{"Compound": "CN(NC(=O)c1cc2c(NC(=O)c3ccc(Br)cc3)n[nH]c2s1)c1ccccc1 [Example 9]", "Quantity": "melting point", "Result": "172 °C"}
{"Compound": "CN(NC(=O)c1cc2c(NC(=O)c3ccc(CN4CCOCC4)cc3)n[nH]c2s1)c1ccccc1 [Example 8]", "Quantity": "melting point", "Result": "242 °C"}
{"Compound": "CN1CCCN(Cc2ccc(C(=O)Nc3n[nH]c4sc(C(=O)NN(C)c5ccc(Cl)cc5)cc34)cc2)CC1 (as salt: salt) [Example 12b]", "Quantity": "melting point", "Result": "162 °C"}

[Q] Quick check: melting point of CN(Cc1ccc(C(=O)Nc2n[nH]c3sc(C(=O)NN(C)c4ccccc4)cc23)cc1)c1ccccc1 [Example 24] ?
[A] 242 °C

---

Target Under Test: Aurora1 (Homo sapiens)
Construct: His tag (N)
Method Notes: Aurora1 enzymatic test, NuMA phosphorylation with [33P]ATP, Flashplate
Condition Parameters: Aurora-B/INCENP-C3 recombinant complex, 1 μM ATP
For each of the molecules below, state its IC50.
One number for each entry, in µM.

Example results:
{"Molecule": "CN1CCN(c2ccc(C(=O)Nc3n[nH]c4sc(C(=O)NN(C)Cc5ccccc5)cc34)cc2)CC1", "Unit Of Measure": "µM", "IC50": 0.012}
{"Molecule": "CN1CCN(Cc2cccc(C(=O)Nc3n[nH]c4sc(C(=O)NN(C)c5ccccc5)cc34)c2)CC1 [Example 16a]", "Unit Of Measure": "µM", "IC50": 0.992}
{"Molecule": "CCN(CC)CCNCc1ccc(C(=O)Nc2n[nH]c3sc(C(=O)NN(C)c4ccc(Cl)cc4)cc23)cc1 [Example 23b]", "Unit Of Measure": "µM", "IC50": 0.259}

# ---- query molecule ----
[Q] Quick check: IC50 of "CN1CCN(c2ccc(C(=O)Nc3n[nH]c4sc(C(=O)NN5CCCCC5)cc34)cc2)CC1" ?
[A] 0.096

---

Target Under Test: Aurora1 (Homo sapiens, UniProt Q96GD4)
Construct: His tag (N)
Sequence (Q96GD4 whole entry, species assumed): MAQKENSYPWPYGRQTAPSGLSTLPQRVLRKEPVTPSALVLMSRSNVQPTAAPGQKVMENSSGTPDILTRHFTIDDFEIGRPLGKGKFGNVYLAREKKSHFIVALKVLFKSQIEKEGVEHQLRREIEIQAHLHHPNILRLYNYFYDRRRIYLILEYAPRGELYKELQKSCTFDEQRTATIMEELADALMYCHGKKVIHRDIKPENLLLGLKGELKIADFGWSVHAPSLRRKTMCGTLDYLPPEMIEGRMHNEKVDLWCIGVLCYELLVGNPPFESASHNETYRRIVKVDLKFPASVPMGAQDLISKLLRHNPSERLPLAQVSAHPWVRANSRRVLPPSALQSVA
Sequence (Q9NQS7 835-903 partner limits assumed, species assumed): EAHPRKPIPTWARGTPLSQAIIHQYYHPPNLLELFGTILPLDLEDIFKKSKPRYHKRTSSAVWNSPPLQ
Method Notes: Aurora1 enzymatic test, NuMA phosphorylation with [33P]ATP, Flashplate
Condition Parameters: Aurora-B/INCENP-C3 recombinant complex, 1 μM ATP
Quantity: pIC50
One number for each entry, as −log10 of the molar value.

{"Molecule": "CCN(NC(=O)c1cc2c(NC(=O)c3ccc(N4CCN(C)CC4)cc3)n[nH]c2s1)c1cccc(Br)c1", "pIC50": 8.30}
{"Molecule": "CN(NC(=O)c1cc2c(NC(=O)c3ccc(CN4CCNCC4)cc3)n[nH]c2s1)c1ccc(Cl)cc1 [Example 13b]", "pIC50": 6.74}
{"Molecule": "COCCN(NC(=O)c1cc2c(NC(=O)c3ccc(N4CCN(C)CC4)cc3)n[nH]c2s1)c1ccc(F)cc1", "pIC50": 7.68}
{"Molecule": "CN1CCN(c2ccc(C(=O)Nc3n[nH]c4sc(C(=O)NN(Cc5ccccc5)c5ccccc5)cc34)cc2)CC1", "pIC50": 7.89}
{"Molecule": "CN(NC(=O)c1cc2c(NC(=O)c3ccc(CN4CCNCC4)cc3)n[nH]c2s1)c1ccccc1 [Example 13a]", "pIC50": 6.85}

Need pIC50 for each of these molecules.
1. COc1ccc(C(=O)Nc2n[nH]c3sc(C(=O)NN(Cc4ccccc4)c4ccccc4)cc23)cc1
2. CN1CCN(c2ccc(C(=O)Nc3n[nH]c4sc(C(=O)NN(CC5CCC5)c5ccc(Cl)cc5)cc34)cc2)CC1
3. CN(C)CCN(C)Cc1ccc(C(=O)Nc2n[nH]c3sc(C(=O)NN(C)c4ccccc4)cc23)cc1 [Example 20a]
4. COc1ccc(C(=O)Nc2n[nH]c3sc(C(=O)NNc4ccccc4C)cc23)cc1

[A]
8.22
8.05
6.72
7.80

Need pIC50 for each of these molecules.
1. CN1CCCN(c2ccc(C(=O)Nc3n[nH]c4sc(C(=O)NN(C)c5ccccc5)cc34)cc2)CC1
2. COc1ccc(C(=O)Nc2n[nH]c3sc(C(=O)NNc4ccccn4)cc23)cc1
3. COc1ccc(C(=O)Nc2n[nH]c3sc(C(=O)NN(C)c4ccccc4)cc23)cc1
4. CN(NC(=O)c1cc2c(NC(=O)c3ccc(CN4CCOCC4)cc3)n[nH]c2s1)c1ccccc1
5. COc1ccc(C(=O)Nc2n[nH]c3sc(C(=O)NNc4ccccc4)cc23)cc1
6. CN1CCCN(Cc2ccc(C(=O)Nc3n[nH]c4sc(C(=O)NN(C)c5ccccc5)cc34)cc2)CC1 [Example 12a]
7. CN(Cc1ccc(C(=O)Nc2n[nH]c3sc(C(=O)NN(C)c4ccccc4)cc23)cc1)c1ccccc1

[A]
1: 8.10; 2: 7.29; 3: 8.05; 4: 7.54; 5: 8.10; 6: 6.89; 7: 6.54
